This collection of values is drawn from the supplement of paper PMC10290057.

Answer each item with its documented efficacy.
# System: HCT116
# assay_remarks: efficacy (fitted maximal change in viability relative to DMSO control); higher = less cytotoxic (negative = loss of viability)
# assay_context: 48 h
Numbers only, in %.

Example entries and their recorded answers appear below.
compound	measurement_units	efficacy
Cn1cnc2c(F)c(Nc3ccc(Br)cc3F)c(C(=O)NOCCO)cc21 [ARRY-162]	%	-60.8
Cc1ccc(Nc2ncc3c(n2)N(C)C(=O)N(c2cc(NC(=O)c4cccc(C(F)(F)F)c4)ccc2C)C3)cn1 [GNF-7]	%	-69.3
CC(=O)OCC(=O)[C@@]12\N=C(C)/O[C@@H]1C[C@H]3[C@@H]4CCC/5=C/C(=O)/C=C\[C@]5(C)[C@H]4[C@@H](O)C[C@]23C [Deflazacort]	%	9

Now for the compound whose efficacy we want.
Field efficacy (entry C/C(O)=C(\C#N)C(=O)Nc1ccc(C(F)(F)F)cc1 [Teriflunomide] ) reads -52.2

###

Record form. Attribute: efficacy. Fill in for each entry.
# Test system: HCT116;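 also: Luminescence-based viability readout, five doses per compound, normalized against on-plate DMSO and empty-well controls, followed by dose-response curve fitting for every drug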
# assay_remarks: efficacy (fitted maximal change in viability relative to DMSO control); higher = less cytotoxic (negative = loss of viability)
# assay_context: 48 h
Counter-ions that a name gives are not always drawn.
Give bare numbers, in %.

The cases that follow already have their efficacy on record.
compound	efficacy (%)
Fc1ccc(-c2nc(-c3ccccc3F)[nH]c2-c2ccncc2)cc1	-48.4
CCN(C(=O)C/1=C(O)/C2=C(C=CC=C2Cl)N(C)C1=O)C3=CC=CC=C3	-65.8
Cc1ccc(C(=O)c2cc(O)c(O)c([N+](=O)[O-])c2)cc1	-83.1
CN(C)NC(=O)CCC(=O)O [Daminozide]	-8.97
CC1=CC=C2N=C(NC(=O)CS\C3=N\C4=C(\SCC4)C(=O)N3C5=CC=CC=C5)SC2=C1	-12.9

Hello, I would appreciate it if you could give efficacy for each entry below.
1. CCCc1nc(C(C)(C)O)c(C(=O)O)n1Cc1ccc(-c2ccccc2-c2nn[nH]n2)cc1
2. CN1CC[C@H]([C@@H]1CO)C2=C3OC(=C/C(=O)C3=C(O)C=C2O)\C4=C(Cl)C=C(C=C4)C(F)(F)F
3. Cc1cc(C(=O)Nc2cc(Nc3ccc4c(/C=C/c5ccccn5)[nH]nc4c3)ccc2F)n(C)n1
4. CCCCOCCOc1nc(-c2ccc(C(=O)O)c(F)c2)sc1C
5. CC\1=C(C(=O)N(\C=C1)C2=CC=C(C=C2)C3=NC=CO3)/C4=CC5=CN=C(N)N=C5C=C4
6. CNC(=O)[C@@H](NC(=O)[C@H](CC(C)C)[C@H](O)C(=O)NO)C(C)(C)C
7. c1cc(CN2CCCNCCNCCCNCC2)ccc1CN1CCCNCCNCCCNCC1 [Plerixafor hydrochloride]
8. C[C@]\12CCC(=O)\C=C1CC[C@H]3[C@@H]4CC[C@](O)(C(=O)CO)[C@@]4(C)C[C@H](O)[C@H]23 [Hydrocortisone]

Result:
-6.46
-83.8
-99.1
-10
-47.6
-54.3
-8.04
-23

# batch: return efficacy for each of the 3 compounds below
1. COC1(C[S+]([O-])c2ccccc2)CCN(CCc2c[nH]c3ccc(F)cc23)CC1 (stereo unspecified)
2. COC/1=C/C=C2\C(=C/C1=O)[C@H](CCC3=CC(=C(OC)C(=C23)OC)OC)NC(C)=O
3. Cc1ncc(NC(=O)c2ccc(CN3CCN(C)CC3)c(C(F)(F)F)c2)cc1Nc1nccc(-c2cccnc2)n1 [Flumatinib mesylate]

Result:
[-18.2, -59.9, -95.8]
